experimental.system: T1, UNK ZnF1-3 (human, UniProt Q9C0B0 31-174)
T1 sequence: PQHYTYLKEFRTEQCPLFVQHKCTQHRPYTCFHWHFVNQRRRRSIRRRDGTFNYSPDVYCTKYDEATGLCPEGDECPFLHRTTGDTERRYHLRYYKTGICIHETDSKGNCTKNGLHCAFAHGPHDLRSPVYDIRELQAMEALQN
experiment.notes: nsRBNS (natural sequence RNA bind-n-seq); RBNS binding buffer (assumed for nsRBNS): 25 mM Tris pH 7.5, 150 mM KCl, 3 mM MgCl2, 0.01% Triton X-100, 500 ug/ml BSA, 20 U/ml SUPERase-In, 4 C; UNK is unkempt and MSI1 is Musashi-1; names of the RNAs are library labels; protein concentration not given here; high values mean tight binding
In all, about 24,000 sequences were measured (“enrichment r”: median about 0.99, highest 2% from about 3.7 on). The list comes from a sample in which the highest values are over-represented; it also holds close analogues and randomly drawn sequences.
Measured log10(binding signal), listed per entry for reference.
Field: value | Transform: log10 | Quantity: binding signal | Unit: enrichment R

Use the examples below as a reference point.
Read off the recorded log10(binding signal) for chr1:88750987:88750988:+_ENSMUSG00000053333_ENSMUST00000065694|mus_mus|motif|central (ssRNA) RNA: GGGAGUUCUACAGUCCGACGAUCUGAUAAGCCUCUUGUGUCCUGUGGUAUGGGGGUGUUCUCAUCUUUCAUAACUGGAGUACGGGAAUCUUCUUUUCCUCUGUCAGGAGUAGAGAUUGACAAUUUCUUAACACCAUCAACCAGCAACAGAGGAUUGAGCAUCA
-0.11

Read off the recorded log10(binding signal) for chr3:179287964:179287965:+_ENSG00000136518_ENST00000429709|hu_hu|hu_hu_hu_mus_True|38_38 (ssRNA) RNA: GGGAGUUCUACAGUCCGACGAUCCUUGAGUGGUGAGAUGGCCUCCAUGUUCUCCCUGGGCACGCGGAGGGCAUUGGUGUCUAUGUAGUAGGUGGGCCCGCCUUGUUUGCCUUUGUCACCAUCAAUCUCCAUCAUUGUACUUCCCAACAGAGGAUUGAGCAUCA
-0.24

Read off the recorded log10(binding signal) for chr10:33190432:33190433:-_ENSG00000150093_ENST00000302278|hu_mus|hu_hu_hu_mus_True|1_48 (ssRNA) RNA: GGGAGUUCUACAGUCCGACGAUCUACAUUUUCCAAACCUGCAUGUGAAUAAAACCCUGGCCACAGAGCCCCAAAACUACCCUACUGUGACUAUGGAGCUGCUGCUGUGAGCUUGGUGUUGCAAAAUCCGCCUGAGUCAGUACUCAACAGAGGAUUGAGCAUCA
0.01

Read off the recorded log10(binding signal) for chr4:142145789:142145790:+_ENSG00000109445_ENST00000262990|hu_hu|FALSE|FALSE (ssRNA) RNA: GGGAGUUCUACAGUCCGACGAUCACACUGUGCACAAAUUGGUAACUUCUGUACAGAAUUACAAAAGUAGCAAAAUGCUCUAUUCUUCUGCCGCCUCUGACACUUGUCACAUUCCAUUGAGGCAUUACAUGGAUGUUUAGCUAACAACAGAGGAUUGAGCAUCA
0.02

Read off the recorded log10(binding signal) for chr17:64801638:64801639:+_ENSG00000154229_ENST00000413366|hu_mus|hu_hu_hu_mus_False|78_78 (ssRNA) RNA: GGGAGUUCUACAGUCCGACGAUCUAUAUAUAUAUAUACAUAUGUACACAUAUAUAGUAAGAGCCUAGUUAAACGUGUAAAGUAGCCAUUCAUUUUUAAAAUUACAUCUACAUUAAAAAAUUAAUAUAUCUGAUAGAGUGCCAGCAACAGAGGAUUGAGCAUCA
0.18

Read off the recorded log10(binding signal) for chr7:72892646:72892647:-_ENSG00000009954_ENST00000339594|hu_hu|FALSE|FALSE (ssRNA) RNA: GGGAGUUCUACAGUCCGACGAUCCUUGUCACUGUGCUUCCCUGGUUUCUUGGCAGGUGGGCCUUUUUUAGGAAUGUGAAAGUUAGUGUGCAGCUUAUUGGGCGACAUCAUCUUCAUCAUUUCUUCUAGAUGUUCUUCAGGAGACAACAGAGGAUUGAGCAUCA
-0.31

Read off the recorded log10(binding signal) for chr2:25965407:25965408:-_ENSG00000143970_ENST00000336112|hu_mus|FALSE|FALSE (ssRNA) RNA: GGGAGUUCUACAGUCCGACGAUCAUGUGCUGCCGGAAUAAAAUCUCUAGGCAGGCUCUUUUCAUCAGAUGCUUGGCCUCUAGAGAAUAUGUAAUUCUCCUGGCCUAAAGUGGUUUGCUCACUCACUGGUGCCUCAGUCUUACCCAACAGAGGAUUGAGCAUCA
-0.12

Read off the recorded log10(binding signal) for chr2:35989780:35989781:-_ENSMUSG00000026889_ENSMUST00000028251|mus_hu|FALSE|FALSE (ssRNA) RNA: GGGAGUUCUACAGUCCGACGAUCGCAUUCUCCAGGGGAAGAGUUUUGGUUUCUGCUUCCAUCAAUGUCUAUGAAAUACUCGUGGCCUCGGCGUGGUGCUCUCAGCUCAUGCCCGGAAACCAGGUCCCGACGCCGCGGUCAGACCAACAGAGGAUUGAGCAUCA
-0.23

Read off the recorded log10(binding signal) for 64960267_64960387_5255_CDS_ENSG00000171988_ENST00000542921|human|control|control (ssRNA) RNA: GGGAGUUCUACAGUCCGACGAUCUGAGUGAGCUGGUUCUUCUCCUUUUUUACUGCGAAUAAGUCUACAUUCUCGACACUUUUGUAAAUUAGGCCCUAUCUCACAGCAGGAGUCAUCCUGUAAAAAGGAUUCCCCAGUUUGCUUCAACAGAGGAUUGAGCAUCA
-0.10

Read off the recorded log10(binding signal) for 57396971_57397091_122_5pUTR_ENSMUSG00000021938_ENSMUST00000022507|mouse|control|control (ssRNA) RNA: GGGAGUUCUACAGUCCGACGAUCGCUUCAGGUUUCCUCUUAACAUCAUCUUAGCAAGUUCGCUUGGGAUGCUGGAUGAGGCCUAGACGUCAAGGUACACACGUCUCCACAUGUAUCUAUGGAAACGAAGCAAGGAAAGCCAGGCAACAGAGGAUUGAGCAUCA
-0.14

Further cases:
Read off the recorded log10(binding signal) for chr1:151206805:151206806:+_ENSG00000143398_ENST00000349792|hu_hu|FALSE|FALSE (ssRNA) RNA: GGGAGUUCUACAGUCCGACGAUCCUUCUCUCGCUCUUUCUGGGAAGCCCGCCGUUUGUAGGUUGAGCCUUUGAGGUCAUAUUUGAUAUGCAUUUUUACCGAUCUUGGUAAAAGAUUGUUCAUCACCACAAUCCGAAUGUUCUUCAACAGAGGAUUGAGCAUCA
-0.33

Read off the recorded log10(binding signal) for chr2:153237265:153237266:-_ENSMUSG00000061411_ENSMUST00000109784|mus_mus|mus_mus_mus_hu_False|8_18 (ssRNA) RNA: GGGAGUUCUACAGUCCGACGAUCAAAAAAAAAAAAAAAAAAGUGUCCUUGUGCCCAAAGUCUCAGGUGCUUGGAGUGUGGCUAGAAACAGCUCUUUUGGAUCCCACCUCUUUCAAAAAACAGUGUACCAACUGGUGGAGGCAGCAACAGAGGAUUGAGCAUCA
0.72

Read off the recorded log10(binding signal) for chr1:93299114:93299115:+_ENSG00000122406_ENST00000370321|hu_hu|motif|central (ssRNA) RNA: GGGAGUUCUACAGUCCGACGAUCUUGUAUCACCAAGCGUUUCCGAGCAUAAUAAUCAGUUUUACCCUCUCGUCGUCUUCGGAAUUUCACUUGGUAUCUCUUAAAGUAGGCCUUAUUCUUAACAACUUUAACAAACCCCAUCCUCAACAGAGGAUUGAGCAUCA
-0.24
